TESTED_ON: T1, MAdCAM-IgG1 Fc fusion protein (human)
T1 construct: Made in CHO-DHFR cells; also called MAdCAM-IgFc
ASSAY_TEXT: SPR BIAcore protocol 1: mAb captured, MAdCAM-IgG1 Fc injected
Exercise: for every item that follows, state its recorded kon.
Answers are plain numbers, in M⁻¹ s⁻¹.

Sample answers from the record:
anti-MAdCAM monoclonal antibody 6.73.2 (antibody, human IgG4, kappa, V domains shown, human IgG4 kappa from hybridoma 6.73.2) VH: EVQLLESGGDLVQPGGSLRLSCAASGFTFRSYAMNWVRQAPGKGLEWVSVISGRGGTTYYADSVKGRFTISRDNSKNTLYLQMNSLRAEDAAVYYCAKIAVAGEGLYYYYGMDVWGQGTTVTVSS VL: DIQMTQSPSSLSASVGDRVTFTCRASQNITNYLNWYQQKPGKAPKLLIYAASSLPRGVPSRFRGSGSGTDFTLTISSLQPEDFATYYCQQSYSNPPECGFGQGTTLDIKR = 1.4e+06
anti-MAdCAM monoclonal antibody 6.14.2 (antibody, human IgG4, kappa, V domains shown, human IgG4 kappa from hybridoma 6.14.2) VH: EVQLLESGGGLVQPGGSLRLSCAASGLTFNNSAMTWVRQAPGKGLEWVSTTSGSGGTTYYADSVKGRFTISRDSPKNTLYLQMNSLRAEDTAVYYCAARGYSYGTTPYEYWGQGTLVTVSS VL: DIQMTQSPSSLSASVGDRVTITCRASRSISSYLNWYQQKPGKAPKVLIFFVSSLQSGVPSRFSGSGSGTDFTLTISSLQPEDFATYYCQQNYIPPITFGQGTRLEIRR = 130000
anti-MAdCAM monoclonal antibody 6.34.2 (antibody, human IgG4, kappa, V domains shown, human IgG4 kappa from hybridoma 6.34.2) VH: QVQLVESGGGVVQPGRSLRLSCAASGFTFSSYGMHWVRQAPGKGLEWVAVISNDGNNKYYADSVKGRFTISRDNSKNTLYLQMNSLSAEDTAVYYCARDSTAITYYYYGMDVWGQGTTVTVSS VL: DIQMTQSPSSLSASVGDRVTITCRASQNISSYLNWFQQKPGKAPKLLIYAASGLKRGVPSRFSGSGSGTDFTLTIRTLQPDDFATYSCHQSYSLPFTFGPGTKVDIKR = 1.2e+06

Which measured kon value corresponds to anti-MAdCAM monoclonal antibody 6.77.1 (antibody, human IgG4, kappa, V domains shown, human IgG4 kappa from hybridoma 6.77.1) VH: EVQLVESGGGLVKPGGSLRLSCAASGFTFSSYSMNWVRQAPGKGLEWVSSISSSSSYIYYADSVKGRFTISRDNAKNSLYLQMNSLRAEDTAVYYCARDGYSSGWSYYYYYGMDVWGQGTTVTVSS VL: DIVMTQTPLSLSVTPGQPASISCNSSQSLLLSDGKTYLNWYLQKPGQPPQLLIYEVSNRFSGVPDRFSGSGSGTDFTLKISRVEAEDVGVYSCMQSIQLMCSFGQGTKLEIKR ? 1.5e+06
